system: CP194; test: qHTS profiling for inhibitors of Plasmodium falciparum proliferation (AID 504749); note: nearly all actives have a fitted effect of over 60% in size; conditions: P. falciparum in erythrocytes, SYBR Green DNA, 72 h; series mostly up to 28.7 µM
Results filed as inconclusive are left out. The source made the active and inactive calls. Calls come from the whole dose curve; as a rule, active = well fitted inhibition curve with a large enough effect; inconclusive = small, poorly fitted or top-dose-only effect; inactive = flat fitted curve, though single readings scatter.
Response enum: active, inactive

Here are 3 compounds together with their reported answers.
COMPOUND	CLASS_ASSIGNMENT
CC[C@]1([C@H]2O[C@@H]([C@@H]3O[C@](O)(CO)[C@@H](C)C[C@H]3C)C[C@H]2C)CC[C@@H]([C@]2(C)CC[C@@]3(C[C@@H](O)[C@@H](C)[C@@H]([C@H](C)[C@H](OC)[C@H](C)C(=O)O)O3)O2)O1	active
CCCCN1CC(O)C(O)C(O)C1CO (centres undefined)	inactive
CC1(C)OC[C@@H]2O[C@@]3(C(=O)O)OC(C)(C)O[C@@H]3[C@@H]2O1	inactive

Now consider a different compound.
# input GET /call?item= Cc1ccccc1N1C(=O)c2cc(N)ccc2N/C1=C\F returns the recorded outcome of this test.
# output inactive

====

system: 3D7; experiment: qHTS profiling for inhibitors of Plasmodium falciparum proliferation (AID 504749); note: nearly all actives have a fitted effect of over 60% in size; details: P. falciparum in erythrocytes, SYBR Green DNA, 72 h; series mostly up to 28.7 µM
Records with an inconclusive call do not appear. The source made the active and inactive calls. The call rests on the fitted dose curve; in most records, active means well fitted inhibition curve with a large enough effect; inconclusive means small, poorly fitted or top-dose-only effect; inactive means flat fitted curve, though single readings scatter.
Answer with one of the outcomes given here: active, inactive

MOLECULE	CLASS_ASSIGNMENT
CC1C(=O)C(=O)C=CN1C (configuration not stated)	inactive
C/C=C1/NN(CCCN2CCN(c3cccc(Cl)c3)CC2)C(=O)N1CCOc1ccccc1	inactive
CCCC(=O)Nc1c(I)cc(I)c(C[C@H](CC)C(=O)O)c1I	inactive
Cc1onc(-c2c(F)cccc2Cl)c1C(=O)NC1C(=O)N2C1SC(C)(C)C2C(=O)O (configuration not stated)	inactive
NC(=O)OC[C@@H]1[C@H](NC(=O)/C(=N/OCC(=O)O)c2csc(N)n2)C(=O)N1S(=O)(=O)O	inactive

# input Which outcome was entered for the molecule CC[C@H](C)[C@H]1O[C@]2(CC[C@@H]1C)C[C@@H]1C[C@@H](C/C=C(\C)[C@H](O[C@@H]3C[C@H](OC)[C@H](O[C@@H]4C[C@H](OC)[C@@H](O)[C@H](C)O4)[C@H](C)O3)[C@@H](C)/C=C/C=C3\CO[C@@H]4[C@H](O)C(C)=C[C@@H](C(=O)O1)[C@]34O)O2 in this test?
# output active

# input # fetch the recorded call for CCC(=O)O[C@]1(C(=O)CCl)[C@@H](C)CC2C3C[C@H](F)C4=CC(=O)C=CC4(C)[C@@]3(F)C(O)CC21C (some centres not stated) here
# output active

# input So what was the verdict on CN1[C@@H]2CC[C@@H]1CC(OC(=O)[C@H](CO)c1ccccc1)C2 (some centres not stated) in this test?
# output inactive

====

target: Peroxisome proliferator-activated receptor gamma (Homo sapiens); assay: qHTS assay for small molecule antagonists of peroxisome proliferator-activated receptor gamma signaling (AID 588537); settings: HEK293 PPARg-UAS-bla, beta-lactamase ratio, antagonist mode; series mostly up to 76.8 µM;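 note: reporter cells co-stimulated with 50 nM rosiglitazone agonist during compound treatment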
Inconclusive results are not listed. Calls of active or inactive are those of the source. Calls come from the whole dose curve; as a rule, active = well fitted inhibition curve with a large enough effect in the signal ratio, with a control signal flat (not every such curve was filed as active); inconclusive = small, poorly fitted or top-dose-only effect, or effect the other way, or a change in a side signal; inactive = flat fitted curve, though single readings scatter; the % refers to the signal ratio.
PROPERTY_MEASURED: outcome

Examples with their reported outcome follow.
SMILES_ENTRY	outcome
ClC1=C(Cl)C(Cl)(Cl)C(Cl)=C1Cl	inactive
O=c1oc2cc(O)ccc2c2oc3cc(O)ccc3c12	inactive
Cc1cccc(O)c1C	inactive
CN(C)c1ccc(C2(c3ccc(N(C)C)cc3)OC(=O)c3cc(N(C)C)ccc32)cc1	inactive

Attention now shifts to the item below.
# input Requested read-out: outcome. Entry: CC1(C)CCC(C)(C)c2cc(C(=O)Nc3ccc(C(=O)O)cc3)ccc21
# output inactive
